As shown below, each of these molecules has a reported TGI value.
- System: SF-539 CNS
- protocol notes: NCI tumour cell line growth inhibition, 48 h
Numbers only here, please. The scale is µM.

- molecule: "Cc1ccc(C(=O)/C(=C\\c2ccc([N+](=O)[O-])cc2)S(=O)Cc2ccc(F)cc2)cc1 (centres undefined)"
  TGI, µM: 3.29
- molecule: "COc1cccc2c1-c1c(OC)cccc1SS2"
  TGI, µM: 33.4
- molecule: "O=c1oc(-c2ccccc2)cc2cccc(O)c12"
  TGI, µM: 5.21

Prompt: What measured TGI goes with `O=c1cc(-c2ccccc2)[nH]c2c(Cl)cccc12` ?
Response: 41.7

Prompt: What measured TGI goes with `COC(=O)c1c(O)ccc2c1c1c(n2Cc2ccccn2)C(=O)c2ccccc2C1=O` ?
Response: 42.9

Prompt: What measured TGI goes with CC(=O)OC1CC[C@@]2(C)C(CC[C@]3(C)C2CC=C2[C@@H]4CC(C)(C)CCC4(C)CCC23C)[C@@]1(C)C(=O)O (some centres undefined) ?
Response: 50.7

Prompt: What measured TGI goes with `COc1cc(F)cc([C@@H](CO)NC(=O)[C@@H](C)N2Cc3ccc(-c4nc(NC5CCOCC5)ncc4Cl)cc3C2=O)c1` ?
Response: 33.9

###

- Test system: ACHN renal
- protocol notes: NCI tumour cell line growth inhibition, 48 h; in the data active = GI50 below about 0.43 µM; inactive = the rest
Mark one answer only. Choices: 1 = active, 0 = inactive

Sample answers from the record:
- molecule: "COc1ccc(-c2nn(-c3cccc(Cl)c3)cc2-c2c(C#N)c(=O)n3[nH]c(-c4ccc(C)cc4)nc3c2C#N)cc1"
  class: 0
- molecule: "O=C(O)c1ccc2c3c(ncnc13)-c1ccccc1C2=O"
  class: 0

Prompt: I'd appreciate the recorded outcome for `O=C(/C=C/c1cccc([N+](=O)[O-])c1)c1ccc(O)c(CN2CCN(c3cc4c(cc3F)c(=O)c(C(=O)O)cn4C3CC3)CC2)c1` from this test.
Response: 0

Prompt: I'd appreciate the recorded outcome for `CSc1n(Cc2ccc3ccccc3c2)c(C)c[n+]1Cc1ccc2ccccc2c1` from this test.
Response: 0

###

- Tested on: TK-10 renal
- protocol notes: NCI tumour cell line growth inhibition, 48 h
As shown below, each of these compounds has a reported TGI value.
Numbers only here, please. The scale is µM.

Look over these answered cases.
- compound: "Cc1cc(C)c2c(=N)c3ccccc3n(CCCCCCn3c4ccccc4c(=N)c4c(C)cc(C)nc43)c2n1"
  endpoint unit: "µM"
  measured number: 3.19
- compound: "COc1cc2c(cc1OC(=O)c1cc3ccccc3[nH]1)N=C[C@@H]1CCCN1C2=O"
  endpoint unit: "µM"
  measured number: 13.8
- compound: "COc1ccc(/C=N\\NC(=O)Nc2cccc3ccccc23)cc1"
  endpoint unit: "µM"
  measured number: 43.9

// switching to the query compound
Prompt: What measured TGI goes with CCN(CC)CCCC(C)Nc1c2ccc(Cl)cc2nc2cc(OC)c(OC)cc12 (centres undefined) ?
Response: 5.04

###

- Tested on: UACC-62 melanoma
- protocol notes: NCI tumour cell line growth inhibition, 48 h; in the data active means GI50 below about 0.43 µM; inactive means the rest
Mark one answer only. Choices: active, inactive

Prompt: I'd appreciate the recorded outcome for `CN1C(=O)C(=Cc2cn(Cc3ccccc3)c3ccccc23)C(=O)N(C)C1=O` from this test.
Response: inactive

Prompt: I'd appreciate the recorded outcome for `COc1ccc2nc3cc([N+](=O)[O-])ccc3c(NCCCN(CCO)CCO)c2c1` from this test.
Response: inactive

###

- Tested on: HCT-15 colon
- protocol notes: NCI tumour cell line growth inhibition, 48 h
measurement type: TGI

Look over these answered cases.
- compound: "Fc1cccc(CSc2ncnc3c2ncn3C2CCCS2)c1 (stereo unspecified)"
  assay target: "HCT-15 colon"
  TGI: "> 100 µM"
- compound: "O=C1OC(c2ccc(Cl)cc2)(c2ccc(Cl)cc2)c2c1ccc1ccccc21"
  assay target: "HCT-15 colon"
  TGI: "> 100 µM"
- compound: "COc1ccc2c3c(c4ccccc4cc13)C(=O)N(CCN(C)CCN)C2=O"
  assay target: "HCT-15 colon"
  TGI: "1.01 µM"
- compound: "C/C(=N\\NC(=O)c1cccnc1)c1cccc(/C(C)=N/NC(=O)c2cccnc2)n1.CC(=O)[O-].CC(=O)[O-].[Zn+2]"
  assay target: "HCT-15 colon"
  TGI: "> 100 µM"
- compound: "O=C(Cc1ccccc1)N=Nc1c(O)[nH]c2ccccc12"
  assay target: "HCT-15 colon"
  TGI: "> 100 µM"

Prompt: What measured TGI goes with CCCC(=O)Nc1cc(/C=C/C(=O)N2CC(CCl)c3c2cc([N+](=O)[O-])c2ccccc32)n(C)c1 (stereo unspecified) ?
Response: > 100 µM

Prompt: What measured TGI goes with COC(=O)C(Cc1ccccc1)NC(=O)c1ccc(CNC(=S)NCc2cccc(CNC(=S)NCc3ccccc3)c2)cc1 (stereo unspecified) ?
Response: > 62.5 µM

###

As shown below, each of these compounds has a reported TGI value.
- Tested on: SNB-19 CNS
- protocol notes: NCI tumour cell line growth inhibition, 48 h

Look over these answered cases.
- compound: "CC(C)(C)OC(=O)N1Cc2cc(O)ccc2C[C@H]1C(=O)O"
  TGI: "> 100 µM"
- compound: "CN[C@@H]1C[C@H]2O[C@@](C)([C@@H]1OC)n1c3ccccc3c3c4c(c5c6ccccc6n2c5c31)C(=O)N[C@H]4O"
  TGI: "0.722 µM"
- compound: "CC(C)(c1ccc(Oc2ccc(C#N)c(C#N)c2)cc1)c1ccc(Oc2ccc(C#N)c(C#N)c2)cc1"
  TGI: "> 100 µM"
- compound: "NC(=O)C[C@H](NC(=O)C1(NC(=O)[C@H](Cc2ccc(CP(=O)(O)O)cc2)NC(=O)C(=O)O)CCCCC1)C(=O)NCCCc1cccc2ccccc12"
  TGI: "> 10 µM"
- compound: "COc1cc2c(cc1OC)C(CC1(O)CCCCC1)N(S(=O)(=O)c1ccc(C)cc1)CC2 (centres undefined)"
  TGI: "> 10 µM"

Prompt: What measured TGI goes with `COc1ccc2oc(=Nc3ccc(F)cc3)c(C(N)=O)cc2c1` ?
Response: > 100 µM

Prompt: What measured TGI goes with `O=C1c2cc(-c3ccccc3)ccc2-c2c1c1ccc([N+](=O)[O-])cc1c(=O)n2CCCBr` ?
Response: > 50 µM

Prompt: What measured TGI goes with CCOC(=O)C1=CC(C)(C(=O)OCC)Nc2c(nc(SC)n(C)c2=O)N1 (centres undefined) ?
Response: > 10 µM

Prompt: What measured TGI goes with NNC(=O)CCC(NS(=O)(=O)c1ccc(Cl)cc1)C(=O)NN (centres undefined) ?
Response: > 100 µM

###

- Test system: XF 498 CNS
- protocol notes: NCI tumour cell line growth inhibition, 48 h
measurement type: TGI

- compound: "CCCCCCCCC(O)C#CC(N)=O (stereo unspecified)"
  assay target: "XF 498 CNS"
  result: "30.8 µM"
- compound: "O=C(NC12CC3CC(CC(C3)C1)C2)C(=O)c1c[nH]c2ccc([N+](=O)[O-])cc12"
  assay target: "XF 498 CNS"
  result: "60.6 µM"
- compound: "CN(C)C(=S)/N=c1\\ss/c(=N\\C(=S)N(C)C)n1-c1ccc(Cl)cc1"
  assay target: "XF 498 CNS"
  result: "> 100 µM"

Prompt: What measured TGI goes with `CC(C)N1CCC2(CC1)NNc1ncccc1-n1cccc12` ?
Response: > 100 µM

Prompt: What measured TGI goes with CN(C(=O)C12C3(C(=O)C(C)(C)C)C4C5(C#N)C3C1(C(=O)C(C)(C)C)C5C42C(=O)C(C)(C)C)C(C)(C)C (stereo unspecified) ?
Response: > 50 µM

Prompt: What measured TGI goes with `Cc1ccc(C(=O)N2CCN(C(=O)c3ccc(C)cc3)c3ccccc32)cc1` ?
Response: 70 µM

###

- Tested on: KM12 colon
- protocol notes: NCI tumour cell line growth inhibition, 48 h
As shown below, each of these compounds has a reported TGI value.

- compound: "Cc1nc2c(Cl)cc(Cl)cc2c(Cl)c1CCCl"
  assay target: "KM12 colon"
  TGI: "> 100 µM"

Prompt: What measured TGI goes with `CCCOC(=O)N[C@H]1CCc2cc(OC)c(OC)c(OC)c2-c2ccc(SC)c(=O)cc21` ?
Response: > 38.6 µM

Prompt: What measured TGI goes with CCC(=O)C(C)C(=O)C(=O)C(=O)OC (centres undefined) ?
Response: > 100 µM

Prompt: What measured TGI goes with `CCOC(=O)c1cn(CC)c2cc3c(cc2c1=O)CCS3(=O)=O` ?
Response: > 100 µM

Prompt: What measured TGI goes with `CCOC(=O)Cn1nnc2cc(Nc3nc4ccccc4nc3C(=O)OCC)ccc21` ?
Response: > 100 µM

Prompt: What measured TGI goes with `Cc1ccc(-c2cc(=O)c3cc(C)c(C)c(C(=O)O)c3o2)cc1` ?
Response: > 100 µM

Prompt: What measured TGI goes with `C[C@@H](NC(=O)[C@@H](CC(=O)N1CCC(N2CCCCC2)CC1)N1C(=O)[C@@H](N2C(=O)OC[C@@H]2c2ccccc2)[C@H]1/C=C/c1cccc(Cl)c1)c1ccccc1` ?
Response: 9.63 µM

Each recorded value in this set is attributed to PubChem BioAssay (NCI).
